Test system: H460 cells
Experiment: CCK8 cell viability and IC50 measurement, H460
Format: cell-based, Human
Conditions: H460, 25 μM, 48 h
// boundary case: Cell viability equal to 90% maps to Not satisfied; strictly smaller maps to Satisfied

Solved cases below.
COc1c2n(cc(C(=O)Nc3cccc(-c4cn(-c5c(C)cc(C)cc5C)nn4)c3)c1=O)CC1OCC(C)N1C2=O (centres unmarked) = Satisfied
COc1c2n(cc(C(=O)Nc3cccc(-c4cn(-c5ccccc5Br)nn4)c3)c1=O)CC1OCC(C)N1C2=O (centres unmarked) = Not satisfied
COc1ccccc1-n1cc(-c2cccc(NC(=O)c3cn4c(c(OC)c3=O)C(=O)N3C(C)COC3C4)c2)nn1 (centres unmarked) = Satisfied
COc1c2n(cc(C(=O)Nc3cccc(-c4cn(-c5ccc(C(F)(F)F)cc5)nn4)c3)c1=O)CC1OCC(C)N1C2=O (centres unmarked) = Not satisfied
COc1c2n(cc(C(=O)Nc3cccc(-c4cn(-c5cccc(F)c5)nn4)c3)c1=O)CC1OCC(C)N1C2=O (centres unmarked) = Not satisfied

Input line: Please state whether Cell viability is below 90% for COc1c2n(cc(C(=O)Nc3cccc(-c4cn(Cc5ccccc5Br)nn4)c3)c1=O)CC1OCC(C)N1C2=O (centres unmarked)
Output line: Satisfied

Input line: Please state whether Cell viability is below 90% for COc1c2n(cc(C(=O)Nc3cccc(-c4cn(Cc5cccc(F)c5)nn4)c3)c1=O)CC1OCC(C)N1C2=O (centres unmarked)
Output line: Not satisfied

Input line: Please state whether Cell viability is below 90% for COc1c2n(cc(C(=O)Nc3cccc(-c4cn(-c5ccccc5Cl)nn4)c3)c1=O)CC1OCC(C)N1C2=O (centres unmarked)
Output line: Satisfied

Input line: Please state whether Cell viability is below 90% for COc1c2n(cc(C(=O)Nc3cccc(-c4cn(Cc5ccccc5C(F)(F)F)nn4)c3)c1=O)CC1OCC(C)N1C2=O (centres unmarked)
Output line: Satisfied

Input line: Please state whether Cell viability is below 90% for COc1c2n(cc(C(=O)Nc3cccc(-c4cn(-c5cc(C(F)(F)F)ccc5C(F)(F)F)nn4)c3)c1=O)CC1OCC(C)N1C2=O (centres unmarked)
Output line: Not satisfied

Input line: Please state whether Cell viability is below 90% for COc1cccc(Cn2cc(-c3cccc(NC(=O)c4cn5c(c(OC)c4=O)C(=O)N4C(C)COC4C5)c3)nn2)c1 (centres unmarked)
Output line: Not satisfied

Input line: Please state whether Cell viability is below 90% for COc1c2n(cc(C(=O)Nc3cccc(-c4cn(-c5cccc(Cl)c5)nn4)c3)c1=O)CC1OCC(C)N1C2=O (centres unmarked)
Output line: Not satisfied

Input line: Please state whether Cell viability is below 90% for COc1c2n(cc(C(=O)Nc3cccc(-c4cn(-c5cc(C(F)(F)F)cc(C(F)(F)F)c5)nn4)c3)c1=O)CC1OCC(C)N1C2=O (centres unmarked)
Output line: Not satisfied

Input line: Please state whether Cell viability is below 90% for COc1c2n(cc(C(=O)Nc3cccc(-c4cn(-c5cccc(Br)c5)nn4)c3)c1=O)CC1OCC(C)N1C2=O (centres unmarked)
Output line: Not satisfied

Input line: Please state whether Cell viability is below 90% for COc1c2n(cc(C(=O)Nc3cccc(-c4cn(-c5ccccc5I)nn4)c3)c1=O)CC1OCC(C)N1C2=O (centres unmarked)
Output line: Not satisfied

---

Tested on: H460 cells
Test: CCK8 cell viability and IC50 measurement, H460
Assay type: cell-based, Human
Conditions: H460, 72 h, CCK8
REPORTED_METRIC: IC50 (µM)
Give just the numeric value; µM need not be written.

COc1c2n(cc(C(=O)Nc3cccc(-c4cn(-c5ccccc5OC(F)(F)F)nn4)c3)c1=O)CC1OCC(C)N1C2=O (stereo not shown) = 6.06
COc1c2n(cc(C(=O)Nc3cccc(-c4cn(-c5ccccc5C)nn4)c3)c1=O)CC1OCC(C)N1C2=O (stereo not shown) = 9.65
CCc1ccccc1-n1cc(-c2cccc(NC(=O)c3cn4c(c(OC)c3=O)C(=O)N3C(C)COC3C4)c2)nn1 (stereo not shown) = 12.7
COc1c2n(cc(C(=O)Nc3cccc(-c4cn(-c5cc(C(F)(F)F)ccc5C(F)(F)F)nn4)c3)c1=O)CC1OCC(C)N1C2=O (stereo not shown) = 36
COc1c2n(cc(C(=O)Nc3cccc(-c4cn(-c5ccccc5Cl)nn4)c3)c1=O)CC1OCC(C)N1C2=O (stereo not shown) = 13.4

Input line: # input molecule: COc1c2n(cc(C(=O)Nc3cccc(-c4cn(Cc5ccccc5Br)nn4)c3)c1=O)CC1OCC(C)N1C2=O (stereo not shown) ; wanted: its IC50
Output line: 30.5

Input line: # input molecule: COc1c2n(cc(C(=O)Nc3cccc(-c4cn(-c5ccccc5C(F)(F)F)nn4)c3)c1=O)CC1OCC(C)N1C2=O (stereo not shown) ; wanted: its IC50
Output line: 31.8

---

Tested on: H1299 cells
Experiment: CCK8 cell viability, H1299
Format: cell-based, Human
Details: H1299, 25 μM, 48 h
REPORTED_METRIC: Cell viability (%)
Give just the numeric value; % need not be written.

Input line: # input molecule: COc1c2n(cc(C(=O)Nc3cccc(-c4cn(-c5cc(C(F)(F)F)ccc5C(F)(F)F)nn4)c3)c1=O)CC1OCC(C)N1C2=O (centres unmarked) ; wanted: its Cell viability
Output line: 113.47

Input line: # input molecule: COc1c2n(cc(C(=O)Nc3cccc(-c4cn(-c5ccc(C(F)(F)F)cc5)nn4)c3)c1=O)CC1OCC(C)N1C2=O (centres unmarked) ; wanted: its Cell viability
Output line: 96.98

Input line: # input molecule: COc1c2n(cc(C(=O)Nc3cccc(-c4cn(Cc5ccccc5Br)nn4)c3)c1=O)CC1OCC(C)N1C2=O (centres unmarked) ; wanted: its Cell viability
Output line: 104.60

Input line: # input molecule: COc1c2n(cc(C(=O)Nc3cccc(-c4cn(Cc5ccccc5Cl)nn4)c3)c1=O)CC1OCC(C)N1C2=O (centres unmarked) ; wanted: its Cell viability
Output line: 126.87

Input line: # input molecule: COc1c2n(cc(C(=O)Nc3cccc(-c4cn(-c5cccc(Br)c5)nn4)c3)c1=O)CC1OCC(C)N1C2=O (centres unmarked) ; wanted: its Cell viability
Output line: 117.54

Input line: # input molecule: COc1c2n(cc(C(=O)Nc3cccc(-c4cn(-c5ccccc5C)nn4)c3)c1=O)CC1OCC(C)N1C2=O (centres unmarked) ; wanted: its Cell viability
Output line: 94.81

Input line: # input molecule: COc1c2n(cc(C(=O)Nc3cccc(-c4cn(-c5cc(C(F)(F)F)cc(C(F)(F)F)c5)nn4)c3)c1=O)CC1OCC(C)N1C2=O (centres unmarked) ; wanted: its Cell viability
Output line: 103.75

Input line: # input molecule: COc1c2n(cc(C(=O)Nc3cccc(-c4cn(Cc5ccccc5C(F)(F)F)nn4)c3)c1=O)CC1OCC(C)N1C2=O (centres unmarked) ; wanted: its Cell viability
Output line: 127.00

Input line: # input molecule: COc1c2n(cc(C(=O)Nc3cccc(-c4cn(Cc5ccccc5)nn4)c3)c1=O)CC1OCC(C)N1C2=O (centres unmarked) ; wanted: its Cell viability
Output line: 118.73

Input line: # input molecule: COc1c2n(cc(C(=O)Nc3cccc(-c4cn(-c5ccccc5Br)nn4)c3)c1=O)CC1OCC(C)N1C2=O (centres unmarked) ; wanted: its Cell viability
Output line: 112.42

Input line: # input molecule: COc1c2n(cc(C(=O)Nc3cccc(-c4cn(-c5c(C)cc(C)cc5C)nn4)c3)c1=O)CC1OCC(C)N1C2=O (centres unmarked) ; wanted: its Cell viability
Output line: 118.92

---

Tested on: H460 cells
Test: CCK8 cell viability and IC50 measurement, H460
Assay type: cell-based, Human
Conditions: H460, 72 h, CCK8
pIC50: −log10 of the molar value.
REPORTED_METRIC: pIC50

Consider the reported pIC50 for these compounds:
COc1c2n(cc(C(=O)Nc3cccc(-c4cn(Cc5ccccc5)nn4)c3)c1=O)CC1OCC(C)N1C2=O (stereo not drawn) = < 4.30
COc1c2n(cc(C(=O)Nc3cccc(-c4cn(-c5ccccc5Br)nn4)c3)c1=O)CC1OCC(C)N1C2=O (stereo not drawn) = < 4.30

Input line: # input compound: COc1c2n(cc(C(=O)Nc3cccc(-c4cn(-c5cccc(Cl)c5)nn4)c3)c1=O)CC1OCC(C)N1C2=O (stereo not drawn) ; wanted: its pIC50
Output line: < 4.00
